test target: EZH1 (Homo sapiens (Human), UniProt Q92800)
Sequence (Q92800 whole entry): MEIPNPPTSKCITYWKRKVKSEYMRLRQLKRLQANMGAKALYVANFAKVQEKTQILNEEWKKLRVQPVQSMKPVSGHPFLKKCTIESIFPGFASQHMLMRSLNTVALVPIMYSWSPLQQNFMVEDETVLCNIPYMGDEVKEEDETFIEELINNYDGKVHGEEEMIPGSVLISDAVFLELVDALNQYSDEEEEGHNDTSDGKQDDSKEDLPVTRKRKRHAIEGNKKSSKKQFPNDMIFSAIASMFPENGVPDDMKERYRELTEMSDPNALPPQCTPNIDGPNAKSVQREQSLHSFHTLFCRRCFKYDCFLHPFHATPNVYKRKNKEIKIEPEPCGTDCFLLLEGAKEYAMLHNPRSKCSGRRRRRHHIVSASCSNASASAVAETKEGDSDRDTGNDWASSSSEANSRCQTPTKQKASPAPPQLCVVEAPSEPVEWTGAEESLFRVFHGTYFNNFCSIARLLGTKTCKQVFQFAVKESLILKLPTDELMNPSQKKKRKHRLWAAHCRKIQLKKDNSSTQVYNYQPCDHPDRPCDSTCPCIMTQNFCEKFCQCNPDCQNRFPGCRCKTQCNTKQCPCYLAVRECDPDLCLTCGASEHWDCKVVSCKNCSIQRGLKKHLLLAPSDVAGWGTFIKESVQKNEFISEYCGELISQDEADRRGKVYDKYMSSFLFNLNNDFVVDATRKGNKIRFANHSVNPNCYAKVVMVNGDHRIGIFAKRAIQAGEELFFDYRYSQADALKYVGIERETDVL
Sequence (O75530 whole entry partner): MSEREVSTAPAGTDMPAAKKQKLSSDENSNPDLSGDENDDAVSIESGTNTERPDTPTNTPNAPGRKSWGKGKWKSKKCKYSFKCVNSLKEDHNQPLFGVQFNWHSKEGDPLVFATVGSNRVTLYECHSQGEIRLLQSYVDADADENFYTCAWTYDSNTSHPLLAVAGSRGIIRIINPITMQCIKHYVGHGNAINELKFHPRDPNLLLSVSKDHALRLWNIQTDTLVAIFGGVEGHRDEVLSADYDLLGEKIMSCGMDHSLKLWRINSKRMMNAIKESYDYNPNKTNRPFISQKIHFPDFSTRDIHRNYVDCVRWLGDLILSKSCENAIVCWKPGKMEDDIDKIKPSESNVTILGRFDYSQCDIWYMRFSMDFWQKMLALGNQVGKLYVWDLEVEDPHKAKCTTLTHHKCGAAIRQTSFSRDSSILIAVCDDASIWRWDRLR
Sequence (Q15022 whole entry partner): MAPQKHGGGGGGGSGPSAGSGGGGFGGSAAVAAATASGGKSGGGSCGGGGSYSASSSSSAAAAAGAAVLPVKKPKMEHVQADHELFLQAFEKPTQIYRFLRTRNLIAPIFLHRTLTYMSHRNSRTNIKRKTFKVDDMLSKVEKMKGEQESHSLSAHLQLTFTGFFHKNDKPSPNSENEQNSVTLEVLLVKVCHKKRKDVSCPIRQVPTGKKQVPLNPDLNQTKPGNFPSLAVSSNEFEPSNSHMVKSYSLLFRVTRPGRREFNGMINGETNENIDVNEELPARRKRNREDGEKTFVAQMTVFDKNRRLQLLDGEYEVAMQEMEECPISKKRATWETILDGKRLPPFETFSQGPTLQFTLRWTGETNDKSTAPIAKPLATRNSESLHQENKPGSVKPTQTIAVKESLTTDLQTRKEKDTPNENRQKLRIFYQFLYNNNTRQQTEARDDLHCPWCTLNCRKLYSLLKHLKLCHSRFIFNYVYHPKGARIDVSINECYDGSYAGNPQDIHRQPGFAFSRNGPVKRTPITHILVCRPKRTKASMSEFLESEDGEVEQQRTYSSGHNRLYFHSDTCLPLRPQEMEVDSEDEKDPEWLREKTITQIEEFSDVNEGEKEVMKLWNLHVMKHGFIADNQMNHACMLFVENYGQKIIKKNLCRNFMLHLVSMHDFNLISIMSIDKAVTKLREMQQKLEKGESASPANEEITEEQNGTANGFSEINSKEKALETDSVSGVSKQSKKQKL
Sequence (Q09028 whole entry partner): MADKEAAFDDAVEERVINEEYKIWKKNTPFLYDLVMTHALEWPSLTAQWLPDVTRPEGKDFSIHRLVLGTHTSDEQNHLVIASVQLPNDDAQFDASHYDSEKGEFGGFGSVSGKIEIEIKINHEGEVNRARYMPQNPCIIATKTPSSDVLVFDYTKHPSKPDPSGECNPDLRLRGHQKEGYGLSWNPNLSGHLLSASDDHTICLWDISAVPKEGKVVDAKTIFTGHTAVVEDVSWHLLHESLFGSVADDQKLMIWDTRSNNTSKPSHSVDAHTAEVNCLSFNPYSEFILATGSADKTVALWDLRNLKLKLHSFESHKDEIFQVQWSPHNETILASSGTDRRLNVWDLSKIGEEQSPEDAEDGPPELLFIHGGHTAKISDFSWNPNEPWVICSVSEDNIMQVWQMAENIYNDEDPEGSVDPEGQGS
Sequence (Q6ZN18 whole entry partner): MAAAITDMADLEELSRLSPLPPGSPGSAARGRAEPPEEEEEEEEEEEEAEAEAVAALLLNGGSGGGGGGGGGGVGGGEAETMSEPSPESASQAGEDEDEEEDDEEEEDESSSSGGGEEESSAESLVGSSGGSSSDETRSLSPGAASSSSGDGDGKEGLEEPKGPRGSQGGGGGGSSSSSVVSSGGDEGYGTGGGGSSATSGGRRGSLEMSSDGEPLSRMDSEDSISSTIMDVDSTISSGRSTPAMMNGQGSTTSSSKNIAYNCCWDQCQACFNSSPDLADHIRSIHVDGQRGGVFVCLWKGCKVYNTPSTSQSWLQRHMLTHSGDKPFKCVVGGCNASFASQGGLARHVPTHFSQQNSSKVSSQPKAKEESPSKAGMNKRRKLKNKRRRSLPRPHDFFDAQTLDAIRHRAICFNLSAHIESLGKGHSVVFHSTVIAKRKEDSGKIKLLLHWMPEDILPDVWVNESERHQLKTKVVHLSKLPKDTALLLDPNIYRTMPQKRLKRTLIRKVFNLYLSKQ
experiment description: EZH1 methyltransferase inhibitory activity (radiometric scintillation proximity assay)
# key: entry, value: pIC50
// field semantics: pIC50 = negative decimal log of concentration (mol/L)

Consider the worked cases shown below.
compound | test readout | result number
Cc1cc(C)c(CN2CCc3c(C)c4c(c(C)c3C2=O)OC(C)(C23CCC(N(C)C)(CC2)CC3)O4)c(=O)[nH]1 (single isomer, unassigned) | pIC50 | 7.92
COc1cc(C)[nH]c(=O)c1CN1CCc2c(Cl)c3c(c(C)c2C1=O)OC(C)(C12CCC(N(C)C)(CC1)CC2)O3 (single isomer, unassigned) | pIC50 | 7.77
CSc1cc(C)[nH]c(=O)c1CN1CCc2c(Cl)c3c(c(C)c2C1=O)OC(C)(C12CCC(N(C)C)(CC1)CC2)O3 (single isomer, unassigned) | pIC50 | 6.78
Cc1cc(C)c(CN2CCc3c(Cl)c4c(c(C)c3C2=O)OC(C)(C23CCC(N(C)C)(CC2)CC3)O4)c(=O)[nH]1 (single isomer, unassigned) | pIC50 | 7.82

--- query ---
# input Quick one: pIC50 for Cc1cc(C)c(CN2CCc3c(Br)c4c(c(C)c3C2=O)OC(C)(C23CCC(N(C)C)(CC2)CC3)O4)c(=O)[nH]1 (single isomer, unassigned) ?
# output 7.82

Source of measurements: patent US11535629B2
